- Tested on: Cullin-3 (CUL3) neddylation
- experimental.details: AlphaLISA assay for Cullin-3 (CUL3) neddylation in TF 1 cells
- Format: cell-based
- condition.details: Homo sapiens, TF-1, 3 h, 3 hours treatment
observable: IC50

Recorded results for 5 molecules are shown here.
>>> result("CCN1C(=O)[C@H](NC(=O)c2cccc(C(F)(F)F)c2)[C@H](c2ccc(F)cc2)c2c(C(=O)N3CCC[C@H]3C#N)nn(C3CC3)c21")
"> 1000 nM"
>>> result("CCN1C(=O)[C@@H](NC(=O)c2cccc(C(F)(F)F)c2)[C@@H](C2CC2)c2c(C(=O)N3CCS(=O)(=O)C[C@H]3C#N)nn(C3CCOCC3)c21 (mixture of isomers)")
"≤ 100 nM"
>>> result("CCN1C(=O)[C@@H](NC(=O)c2cccc(C(F)(F)F)c2)[C@@H](C2CC2)c2c(C(=O)N3CCS(=O)(=O)C[C@H]3C#N)nn(-c3ccccc3)c21")
"≤ 100 nM"
>>> result("C/C=C(\\CN1CCOCC1)C(=O)NCc1nn(-c2ccccc2)c2c1[C@@H](c1ccc(F)cc1)[C@H](NC(=O)c1cccc(C(F)(F)F)c1)C(=O)N2CC (racemic)")
"≤ 100 nM"
>>> result("CCN1C(=O)[C@@H](NC(=O)c2cccc(C(F)(F)F)c2)[C@@H](C2CCC2)c2c(C(=O)N3CCC[C@H]3C#N)nn(C3CCOCC3)c21")
"≤ 100 nM"

Problem: Any idea what IC50 was measured for CCN1C(=O)[C@H](NC(=O)c2cccc(C(F)(F)F)c2)[C@H](c2ccc(F)cc2)c2c([C@@H](C)NC#N)nn(C3CCOCC3)c21 ?
Solution: > 1000 nM

Problem: Any idea what IC50 was measured for CCN1C(=O)[C@@H](NC(=O)c2cccc(C(F)(F)F)c2)[C@@H](c2ccc(F)cc2)c2c([C@H](NC#N)C(F)F)nn(-c3ccccc3)c21 ?
Solution: ≤ 100 nM

Problem: Any idea what IC50 was measured for CCN1C(=O)[C@@H](NC(=O)c2cccc(C(F)(F)F)c2)[C@@H](c2ccc(F)cc2)c2c([C@H](CCO)NC#N)nn(-c3ccccc3)c21 (mixture of isomers) ?
Solution: ≤ 100 nM

Problem: Any idea what IC50 was measured for CCN1C(=O)[C@@H](NC(=O)c2cccc(C(F)(F)F)c2)[C@@H](C2CC2)c2c(C(=O)N3[C@H](C#N)C[C@H]4C[C@H]43)nn(-c3ccccc3)c21 ?
Solution: ≤ 100 nM

* * *

Measured pIC50 by item
- tested.target: DCN1 (DCUND1) protein PONY domain (Homo sapiens (Human), UniProt Q96GG9)
- Sequence (Q96GG9 60-248): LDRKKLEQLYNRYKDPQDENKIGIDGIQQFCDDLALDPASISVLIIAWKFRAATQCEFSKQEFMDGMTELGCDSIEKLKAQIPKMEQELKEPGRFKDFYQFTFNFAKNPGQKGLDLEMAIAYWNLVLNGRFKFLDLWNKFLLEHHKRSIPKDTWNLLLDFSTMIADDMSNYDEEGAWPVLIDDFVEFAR
- experimental.details: TR-FRET assay, DCN1 binding with FAM-labeled probe
- condition.details: 24 hr after treatment with compound; read-out: TR FRET IC50 24 hr
pIC50: −log10 of the molar value.

>>> result("CCN1C(=O)[C@@H](NC(=O)c2cccc(C(F)(F)F)c2)[C@@H](c2ccc(F)cc2)c2c(CNC/C=C/C(=O)OC(C)(C)C)nn(-c3ccccc3)c21 [Compound I-635]")
"≥ 6.70"
>>> result("CCN1C(=O)[C@@H](NC(=O)c2ccc3c(c2)CCO3)[C@@H](C2CC2)c2c(C(=O)N3[C@H](C#N)C[C@H]4C[C@H]43)nn(C3CCOCC3)c21 [Compound I-547]")
"≥ 6.70"

From here, focus on the item given below.
Problem: Entry C=C(CN1CCOCC1)C(=O)NCc1nn(-c2ccccc2)c2c1[C@@H](c1ccc(F)cc1)[C@H](NC(=O)c1cccc(C(F)(F)F)c1)C(=O)N2CC (racemic) [Compound I-58] , system DCN1 (DCUND1) protein PONY domain (Homo sapiens (Human), UniProt Q96GG9): what pIC50 was measured?
Solution: ≥ 6.70

* * *

- tested.target: DCN1 (DCUND1) protein PONY domain (Homo sapiens (Human))
- experimental.details: Off-rate measurement of reversible covalent molecules (jump dilution TR-FRET with Cy5 probe)
- Type: binding
- condition.details: jump dilution, Cy5 covalent probe 150 nM, TR-FRET
- Description: A typical covalent compound is assumed to stay bound to a protein for at least the life of that protein in the cell. In reality, there is a range of how long a covalent compounds remains bound before a reverse reaction takes place. […] In this version of the jump dilution method, the increase in covalent probe binding over time was measured through a TR-FRET reaction between the covalent probe and the biotinylated target protein. […]
observable: koff (s⁻¹)
Lab book: enter the figure in s⁻¹, no units written.

>>> result_number("CCN1C(=O)[C@@H](NC(=O)c2cccc(C(F)(F)F)c2)[C@@H](C)c2c(C(=O)N3[C@H](C#N)C[C@H]4C[C@H]43)nn(C3CCOCC3)c21 [Compound I-387]")
0.000116
>>> result_number("CCN1C(=O)[C@@H](NC(=O)c2cccc(C(F)(F)F)c2)[C@@H](c2ccc(F)cc2)c2c(C(=O)N3CCC[C@H]3C#N)nn(C3CCOCC3)c21 [Compound I-350]")
"2.64e-05"

From here, focus on the item given below.
Problem: Entry CCN1C(=O)[C@@H](NC(=O)c2cccc(C(F)(F)F)c2)[C@@H](c2ccc(F)cc2)c2c(C(=O)N(C)[C@H](C#N)CCN(C)C)nn(C3CCOCC3)c21 [Compound I-370] , system DCN1 (DCUND1) protein PONY domain (Homo sapiens (Human)): what koff was measured?
Solution: 0.000212

* * *

- tested.target: DCN1 (DCUND1) protein PONY domain (Homo sapiens (Human))
- experimental.details: TR-FRET assay, DCN1 binding with FAM-labeled probe
- condition.details: 24 hr after treatment with compound; read-out: TR FRET IC50 24 hr
pIC50: −log10 of the molar value.
observable: pIC50

>>> result("C=C(CN1CCC1)C(=O)NCc1nn(-c2ccccc2)c2c1[C@H](c1ccc(F)cc1)[C@H](NC(=O)c1cccc(C(F)(F)F)c1)C(=O)N2CC [Compound I-2]")
"≥ 6.70"
>>> result("C/C=C(\\CN1CCOCC1)C(=O)NCc1nn(-c2ccccc2)c2c1[C@@H](c1ccc(F)cc1)[C@H](NC(=O)c1cccc(C(F)(F)F)c1)C(=O)N2CC (racemic) [Compound I-27]")
"≥ 6.70"

From here, focus on the item given below.
Problem: Any idea what pIC50 was measured for CCN1C(=O)[C@@H](NC(=O)c2cccc(C(F)(F)F)c2)[C@@H](c2ccc(F)cc2)c2c(NC(=O)C#CCN(C)C)nn(-c3ccccc3)c21 (racemic) [Compound I-93] ?
Solution: ≥ 6.70

* * *

- tested.target: DCN1 (DCUND1) protein PONY domain (Homo sapiens (Human), UniProt Q96GG9)
- experimental.details: TR-FRET assay, DCN1 binding with FAM-labeled probe
- condition.details: 24 hr after treatment with compound; read-out: TR FRET IC50 24 hr
pIC50: −log10 of the molar value.
Measured pIC50 by item

Problem: Any idea what pIC50 was measured for CCN1C(=O)[C@@H](NC(=O)c2ccc3ocnc3c2)[C@@H](C2CC2)c2c(C(=O)N3[C@H](C#N)C[C@H]4C[C@H]43)nn(C3CCOCC3)c21 [Compound I-601] ?
Solution: 6.00 to 6.70

Problem: Any idea what pIC50 was measured for CCN1C(=O)[C@@H](NC(=O)c2cccc(C(F)(F)F)c2)[C@@H](C2CC2)c2c(C(=O)N3[C@H](C#N)C[C@H]4C[C@H]43)nn(C3CCOCC3)c21 [Compound I-256] ?
Solution: ≥ 6.70

Problem: Any idea what pIC50 was measured for CCN1C(=O)[C@@H](NC(=O)c2cccc(C(F)(F)F)c2)[C@@H](c2ccc(F)cc2)c2c(C(=O)N3CCC=C3C#N)nn(C3CCOCC3)c21 [Compound I-631] ?
Solution: ≥ 6.70

Problem: Any idea what pIC50 was measured for C=C(C(=O)O)c1nn(-c2ccccc2)c2c1[C@H](c1ccc(F)cc1)[C@H](NC(=O)c1cccc(C(F)(F)F)c1)C(=O)N2CC (racemic) [Compound I-53] ?
Solution: 6.00 to 6.70

Problem: Any idea what pIC50 was measured for CCN1C(=O)[C@@H](NC(=O)c2cccc(C(F)(F)F)c2)[C@@H](c2ccc(F)cc2)c2c(C(=O)N(CC#N)CCO)nn(-c3ccccc3)c21 (stereo in doubt) [Compound I-286] ?
Solution: ≥ 6.70

* * *

Measured pIC50 by item
- Test system: Cullin-3 (CUL3) neddylation
- experimental.details: AlphaLISA assay for Cullin-3 (CUL3) neddylation in TF 1 cells
- Type: cell-based
- condition.details: Homo sapiens, TF-1, 3 h, 3 hours treatment
- Procedure: An AiphaLISA assay was performed to evaluate the ability of the compounds to suppress neddylation, which is downstream from DCN-1 and DCN-2. A stronger inhibition of DCN-1 and DCN-2 is expected to result in a suppression of neddylation as shown by a lower AlphaLISA signal. […] The AlphaLISA signal was then read on a VICTOR Nivo Multimode Microplate Reader (Revvity, Hopkinton, MA). […]
pIC50: −log10 of the molar value.

Recorded results for 4 compounds are shown here.
>>> result("CCN1C(=O)[C@@H](NC(=O)C(C2CC2)C2CC2)[C@@H](C2CC2)c2c(C(=O)N3[C@H](C#N)C[C@H]4C[C@H]43)nn(C3CCOCC3)c21 [Compound I-699]")
"< 6.00"
>>> result("C=C(CN1CCOCC1)C(=O)Nc1nn(-c2ccccc2)c2c1[C@H](c1ccc(F)cc1)[C@H](NC(=O)c1cccc(C(F)(F)F)c1)C(=O)N2CC (racemic) [Compound I-75]")
"≥ 7.00"
>>> result("CCN1C(=O)[C@@H](NC(=O)c2cccc(C(F)(F)F)c2)[C@@H](C2CC2)c2c(C(=O)N3CCN(C)C[C@H]3C#N)nn(C3CCOCC3)c21 (single isomer, unassigned) [Compound I-430]")
"≥ 7.00"
>>> result("CCN1C(=O)[C@H](NC(=O)c2cccc(C(F)(F)F)c2)[C@H](c2ccc(F)cc2)c2c(C(=O)N3C[C@H](F)C[C@@H]3C#N)nn(-c3ccccc3)c21 (mixture of isomers) [Compound I-253]")
"≥ 7.00"

From here, focus on the item given below.
Problem: Any idea what pIC50 was measured for CCN1C(=O)[C@@H](NC(=O)c2cccc(C(F)(F)F)c2)[C@@H](c2ccc(F)cc2)c2c(C(=O)N3CCC[C@H]3C#N)nn(-c3cccc(OCCN4CCN(C5COC5)CC4)c3)c21 [Compound I-340] ?
Solution: ≥ 7.00
